- Tested on: HCT-116
- RUN_DESCRIPTION: NCI tumour cell line growth inhibition, 48 h
Active and inactive are the calls of the source. Rule as the data show it: active = GI50 up to about 1.1 µM and inactive = higher.
Quick reference: GI50 of the listed items.

>>> recorded_value("COC1OCC(O)C(NC(=O)N(C)N=O)C1O (stereo unspecified)")
"> 100 µM (inactive)"
>>> recorded_value("O=C(O)CCCc1nc2c(n1Cc1ccccc1)C(=O)c1ccccc1C2=O")
"28.6 µM (inactive)"
>>> recorded_value("CC(Oc1ccccc1)C(=O)NN (stereo unspecified)")
"> 100 µM (inactive)"

Query: Query the reported GI50 for HCT-116; item: CC(=O)OC1(C)C(=O)OC1(C)C(C)=O (stereo unspecified)
Result: > 100 µM (inactive)

Query: Subsequent entry: COc1ccccc1/C=C\c1cnnc2ccccc12
Result: 5.77 µM (inactive)

Query: Check Cc1nc2nn(Cc3ccccc3)cc2c(=O)o1 too.
Result: > 100 µM (inactive)
